Target: T1, cynomolgus monkey IL-33 expressed with a C-terminal hexahistidine tag (cynomolgus monkey)
T1 construct: also called MfIL-33-6His; Mf-IL-33-6His
T1 chain: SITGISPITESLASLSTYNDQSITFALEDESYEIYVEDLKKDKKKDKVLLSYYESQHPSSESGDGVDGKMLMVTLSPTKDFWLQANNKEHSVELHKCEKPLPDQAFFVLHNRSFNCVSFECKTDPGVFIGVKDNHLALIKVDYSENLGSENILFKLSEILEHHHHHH
Assay: SPR 37C, pH6.0 chase, mAb captured
property_measured: koff (s⁻¹)

binder: H4H9660P (antibody, human IgG4, V domains shown, Human IgG4 Fc (H4H)) VH: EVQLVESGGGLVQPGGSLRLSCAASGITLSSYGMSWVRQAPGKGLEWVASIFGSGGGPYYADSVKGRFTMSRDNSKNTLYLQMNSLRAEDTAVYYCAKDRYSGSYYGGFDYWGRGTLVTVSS VL: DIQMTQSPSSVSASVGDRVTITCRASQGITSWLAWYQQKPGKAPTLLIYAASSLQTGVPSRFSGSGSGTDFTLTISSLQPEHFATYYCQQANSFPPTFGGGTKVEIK
numeric_result: 0.00463

binder: H1M9566N (antibody, mouse IgG1, V domains shown, Human variable domains, mouse IgG1 Fc (H1M)) VH: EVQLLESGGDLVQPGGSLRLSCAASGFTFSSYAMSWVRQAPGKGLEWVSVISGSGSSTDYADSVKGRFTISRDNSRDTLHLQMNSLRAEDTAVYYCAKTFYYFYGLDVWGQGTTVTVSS VL: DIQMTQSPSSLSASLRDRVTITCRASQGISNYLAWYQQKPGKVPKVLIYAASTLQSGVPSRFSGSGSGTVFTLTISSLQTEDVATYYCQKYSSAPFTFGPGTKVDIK
numeric_result: 0.00115

binder: H1M9568N (antibody, mouse IgG1, V domains shown, Human variable domains, mouse IgG1 Fc (H1M)) VH: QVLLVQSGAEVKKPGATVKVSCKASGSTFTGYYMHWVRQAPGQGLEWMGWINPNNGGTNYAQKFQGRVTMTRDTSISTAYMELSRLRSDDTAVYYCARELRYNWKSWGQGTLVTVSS VL: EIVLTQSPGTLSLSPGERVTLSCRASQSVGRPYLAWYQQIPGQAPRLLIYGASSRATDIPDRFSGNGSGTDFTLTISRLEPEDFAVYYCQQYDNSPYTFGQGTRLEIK
numeric_result: 0.00224
